This listing pairs molecules with measured Tmax.
Experiment: Pharmacokinetics of AT and NT in healthy volunteers after a single dose of 25 mg amitriptyline
Assay type: in vivo, human
Conditions: both sexes, human, plasma, po, 25 mg, healthy volunteers, single oral 25 mg AT; CYP2C19 activity score 2.5 (n = 10); mean
Protocol: In order to enrich the study sample with the less frequent functionally deficient OCT1 variants, participants were selected based on OCT1 genotype from an internal database at the Institute of Clinical Pharmacology of the University Medical Center Göttingen. […] The lower limit of quantification was 0.5 ng/ml for AT and 0.1 ng/ml for NT. […] Pharmacokinetic parameters were calculated by non-compartmental analysis using Phoenix 64 WinNonlin version 6.3 (Certara Inc., Princeton, NJ, United States). […]
Respond numerically; units are h and should not be typed.

{"columns": ["MOLECULE", "MEASUREMENT UNITS", "OBS VALUE"],
 "data": [
  ["CNCCC=C1c2ccccc2CCc2ccccc21 [Nortriptyline, nortriptyline]", "h", 9.9]
]}

Req: # get_value(readout='Tmax', item= CN(C)CCC=C1c2ccccc2CCc2ccccc21 [Amitriptyline, amitriptyline] )
Resp: 3.6

====

test: Pharmacokinetics of AT and NT in healthy volunteers after a single dose of 25 mg amitriptyline; type: in vivo, human; details: both sexes, human, plasma, po, 25 mg, healthy volunteers, single oral 25 mg AT; OCT1 genotype *1 / *2 (n 3); mean ± standard deviation; read-out: AUC48h
ASSAY ENDPOINT: AUC(0-t) (ng·h/mL)
Respond numerically; units are ng·h/mL and should not be typed.

Req: # get_value(readout='AUC(0-t)', item= CNCCC=C1c2ccccc2CCc2ccccc21 )
Resp: 115

====

Assay: Pharmacokinetics of AT and NT in healthy volunteers after a single dose of 25 mg amitriptyline
Format: in vivo, human
Details: both sexes, human, plasma, po, 25 mg, healthy volunteers, single oral 25 mg AT; OCT1 genotype *1 / *1 (n 14); mean ± standard deviation; read-out: AUC48h
Method: In order to enrich the study sample with the less frequent functionally deficient OCT1 variants, participants were selected based on OCT1 genotype from an internal database at the Institute of Clinical Pharmacology of the University Medical Center Göttingen. […] The lower limit of quantification was 0.5 ng/ml for AT and 0.1 ng/ml for NT. […] Pharmacokinetic parameters were calculated by non-compartmental analysis using Phoenix 64 WinNonlin version 6.3 (Certara Inc., Princeton, NJ, United States). […]
ASSAY ENDPOINT: AUC(0-t) (ng·h/mL)
Respond numerically; units are ng·h/mL and should not be typed.

Req: # get_value(readout='AUC(0-t)', item= CNCCC=C1c2ccccc2CCc2ccccc21 [Nortriptyline, nortriptyline] )
Resp: 126

====

assay: Pharmacokinetics of AT and NT in healthy volunteers after a single dose of 25 mg amitriptyline; format: in vivo, human; settings: both sexes, human, plasma, po, 25 mg, healthy volunteers, single oral 25 mg AT; 2 active OCT1 alleles (n = 14)
This listing pairs molecules with measured Tmax.
Respond numerically; units are h and should not be typed.

{"columns": ["MOLECULE", "MEASUREMENT UNITS", "Tmax"],
 "data": [
  ["CNCCC=C1c2ccccc2CCc2ccccc21 [Nortriptyline, nortriptyline]", "h", 11.5]
]}

Req: # get_value(readout='Tmax', item= CN(C)CCC=C1c2ccccc2CCc2ccccc21 [Amitriptyline, amitriptyline] )
Resp: 2.9

====

assay: Pharmacokinetics of AT and NT in healthy volunteers after a single dose of 25 mg amitriptyline; assay type: in vivo, human; details: both sexes, human, plasma, po, 25 mg, healthy volunteers, single oral 25 mg AT; CYP2C19 activity score 2 (n = 16); mean
This listing pairs molecules with measured Tmax.

{"columns": ["MOLECULE", "Tmax"],
 "data": [
  ["CN(C)CCC=C1c2ccccc2CCc2ccccc21 [Amitriptyline, amitriptyline]", "3.2 h"]
]}

We next turn to a different molecule, shown below.
Req: # get_value(readout='Tmax', item= CNCCC=C1c2ccccc2CCc2ccccc21 [Nortriptyline, nortriptyline] )
Resp: 6.6 h

====

experiment: Pharmacokinetics of AT and NT in healthy volunteers after a single dose of 25 mg amitriptyline; format: in vivo, human; details: both sexes, human, plasma, po, 25 mg, healthy volunteers, single oral 25 mg AT, plasma; CYP2C19 activity score 1.5 (n = 2); mean; read-out: Cmax
This listing pairs compounds with measured Cmax.
Please state the value followed by its unit.

{"columns": ["SMILES STR", "ASSAY ENDPOINT", "OBS VALUE"],
 "data": [
  ["CN(C)CCC=C1c2ccccc2CCc2ccccc21", "Cmax", "16.2 ng/mL"]
]}

We next turn to a different compound, shown below.
Req: # get_value(readout='Cmax', item= CNCCC=C1c2ccccc2CCc2ccccc21 )
Resp: 3.5 ng/mL

====

Experiment: Pharmacokinetics of AT and NT in healthy volunteers after a single dose of 25 mg amitriptyline
Assay type: in vivo, human
Conditions: both sexes, human, plasma, po, 25 mg, healthy volunteers, single oral 25 mg AT, plasma; CYP2D6 activity 0.5 (n = 2); mean; read-out: AUC48h
Experimental: In order to enrich the study sample with the less frequent functionally deficient OCT1 variants, participants were selected based on OCT1 genotype from an internal database at the Institute of Clinical Pharmacology of the University Medical Center Göttingen. […] The lower limit of quantification was 0.5 ng/ml for AT and 0.1 ng/ml for NT. […] Pharmacokinetic parameters were calculated by non-compartmental analysis using Phoenix 64 WinNonlin version 6.3 (Certara Inc., Princeton, NJ, United States). […]
ASSAY ENDPOINT: AUC(0-t)

{"columns": ["SMILES STR", "OBS VALUE"],
 "data": [
  ["CNCCC=C1c2ccccc2CCc2ccccc21", "222 ng·h/mL"]
]}

We next turn to a different compound, shown below.
Req: # get_value(readout='AUC(0-t)', item= CN(C)CCC=C1c2ccccc2CCc2ccccc21 )
Resp: 166 ng·h/mL

====

experiment: Pharmacokinetics of AT and NT in healthy volunteers after a single dose of 25 mg amitriptyline; type: in vivo, human; conditions: both sexes, human, plasma, po, 25 mg, healthy volunteers, single oral 25 mg AT; CYP2D6 activity 1 (n = 10); mean
This listing pairs molecules with measured Tmax.
Respond numerically; units are h and should not be typed.

{"columns": ["SMILES STR", "ASSAY ENDPOINT", "OBS VALUE"],
 "data": [
  ["CNCCC=C1c2ccccc2CCc2ccccc21", "Tmax", 6.2]
]}

We next turn to a different molecule, shown below.
Req: # get_value(readout='Tmax', item= CN(C)CCC=C1c2ccccc2CCc2ccccc21 )
Resp: 2.7

====

experiment: Pharmacokinetics of AT and NT in healthy volunteers after a single dose of 25 mg amitriptyline; type: in vivo, human; conditions: both sexes, human, plasma, po, 25 mg, healthy volunteers, single oral 25 mg AT; CYP2D6 activity 1 (n = 10); mean
This listing pairs compounds with measured half-life.
Respond numerically; units are h and should not be typed.

{"columns": ["SMILES STR", "half-life (h)"],
 "data": [
  ["CN(C)CCC=C1c2ccccc2CCc2ccccc21", 21.4]
]}

We next turn to a different compound, shown below.
Req: # get_value(readout='half-life', item= CNCCC=C1c2ccccc2CCc2ccccc21 )
Resp: 64.2

====

assay: Pharmacokinetics of AT and NT in healthy volunteers after a single dose of 25 mg amitriptyline; assay type: in vivo, human; details: both sexes, human, plasma, po, 25 mg, healthy volunteers, single oral 25 mg AT, plasma; CYP2D6 activity 0 (n = 3); mean; read-out: Cmax
This listing pairs compounds with measured Cmax.
Please state the value followed by its unit.

{"columns": ["SMILES STR", "OBS VALUE"],
 "data": [
  ["CNCCC=C1c2ccccc2CCc2ccccc21", "3.48 ng/mL"]
]}

Req: # get_value(readout='Cmax', item= CN(C)CCC=C1c2ccccc2CCc2ccccc21 )
Resp: 10.9 ng/mL

====

This listing pairs compounds with measured AUC(0-t).
test: Pharmacokinetics of AT and NT in healthy volunteers after a single dose of 25 mg amitriptyline; assay type: in vivo, human; details: both sexes, human, plasma, po, 25 mg, healthy volunteers, single oral 25 mg AT, plasma; CYP2D6 activity 0 (n = 3); mean; read-out: AUC48h
Respond numerically; units are ng·h/mL and should not be typed.

{"columns": ["SMILES STR", "OBS VALUE"],
 "data": [
  ["CNCCC=C1c2ccccc2CCc2ccccc21", 145]
]}

We next turn to a different compound, shown below.
Req: # get_value(readout='AUC(0-t)', item= CN(C)CCC=C1c2ccccc2CCc2ccccc21 )
Resp: 236

====

assay: Pharmacokinetics of AT and NT in healthy volunteers after a single dose of 25 mg amitriptyline; format: in vivo, human; conditions: both sexes, human, plasma, po, 25 mg, healthy volunteers, single oral 25 mg AT; OCT1 genotype *3 / *3 (n 3); mean ± standard deviation; read-out: AUC48h
ASSAY ENDPOINT: AUC(0-t) (ng·h/mL)
Respond numerically; units are ng·h/mL and should not be typed.

Req: # get_value(readout='AUC(0-t)', item= CNCCC=C1c2ccccc2CCc2ccccc21 )
Resp: 77
